Listing of recorded MIC by entry.
- Test system: SAUR 9218
- EXPERIMENTAL DETAILS: MIC Test Method, standard agar dilution
- Format: cell-based
- STUDY CONDITIONS: agar dilution, Mueller Hinton agar, incubated overnight at 35° C.; lowest concentration that inhibits visible growth; read-out: SAUR 9218 MIC

Worked examples follow.
>>> value_reported("O=C(O)c1cc(Br)ccc1NC(=O)c1noc2ccc(Br)cc12")
"1 µg/mL"
>>> value_reported("N#Cc1ccc(NC(=O)c2ncc(-c3ccc4c(c3)OCO4)o2)c(C(=O)O)c1")
"2 µg/mL"
>>> value_reported("N#Cc1cccc(C(=O)Nc2cccc3cc(C(=O)Nc4ccc(C#N)cc4C(=O)O)[nH]c23)c1")
"1 µg/mL"
>>> value_reported("CCCCN(CCCC)CCCNS(=O)(=O)c1cc(C(=O)Nc2ccc(Br)cc2C(=O)O)cs1")
"> 128 µg/mL"
>>> value_reported("N#Cc1ccc(NC(=O)c2noc3cc(NS(=O)(=O)Cc4ccccc4)ccc23)c(C(=O)O)c1")
"1 µg/mL"
>>> value_reported("O=C(Nc1ccc(Br)cc1C(=O)O)c1cc(-c2ccccc2C(F)(F)F)on1")
"0.5 µg/mL"
>>> value_reported("O=C(O)c1cc(Cl)ccc1NC(=O)c1cc2ccccc2n1CCCc1ccccc1")
"4 µg/mL"
>>> value_reported("Cn1c(C(=O)Nc2ccc(Cl)cc2C(=O)O)cc2ccccc21")
"4 µg/mL"
>>> value_reported("Cn1c(C(=O)Nc2ccc(C#N)cc2C(=O)O)cc2cccc(NC(=O)NCC(O)CO)c21 (stereo not drawn)")
"4 µg/mL"
>>> value_reported("Cn1c(C(=O)Nc2ccc(C#N)cc2C(=O)O)cc2cccc(OCC(O)COCC(O)CO)c21 (stereo not drawn)")
"2 µg/mL"

Could you now look at the following molecule, please?
// molecule CN(C)S(=O)(=O)Nc1ccc2onc(C(=O)Nc3ccc(C#N)cc3C(=O)O)c2c1 , assay SAUR 9218, MIC value: 0.5 µg/mL

* * *

- Test system: SAUR 9218
- EXPERIMENTAL DETAILS: MIC Test Method, standard agar dilution
- Assay type: cell-based
- STUDY CONDITIONS: agar dilution, Mueller Hinton agar, incubated overnight at 35° C.; lowest concentration that inhibits visible growth; read-out: SAUR 9218 MIC
METRIC NAME: MIC (µg/mL)
Write the value in µg/mL as a bare number.

>>> value_reported("CC(C)[Si](c1cc(C(=O)Nc2ccc(C#N)cc2C(=O)O)no1)(C(C)C)C(C)C")
0.5
>>> value_reported("Cn1c(C(=O)Nc2ccc(C#N)cc2C(=O)O)cc2cccc(NS(=O)(=O)CCCCl)c21")
0.125

// compound CCC(CC)Sc1ccc(C(=O)Nc2ccc(C#N)cc2C(=O)O)cn1 , assay SAUR 9218, MIC value: 0.25

// compound Cn1nc(C(=O)Nc2ccc(Br)cc2C(=O)O)cc1-c1ccccc1 , assay SAUR 9218, MIC value: 32

// compound COc1ccc(CC(=O)Nc2cccc3cc(C(=O)Nc4ccc(C#N)cc4C(=O)O)[nH]c23)cc1OC , assay SAUR 9218, MIC value: 1

// compound CCCCCCSc1cnc(C(=O)Nc2ccc(Cl)cc2C(=O)O)cn1 , assay SAUR 9218, MIC value: 0.5

// compound O=C(Nc1ccc(Br)cc1C(=O)O)c1csc(S(=O)(=O)NC2Cc3ccccc3C2)c1 , assay SAUR 9218, MIC value: 8

// compound N#Cc1ccc(NC(=O)c2cc3cccc(NC(=O)c4cc5ccccc5[nH]4)c3[nH]2)c(C(=O)O)c1 , assay SAUR 9218, MIC value: 0.25

// compound O=C(Nc1ccc(I)cc1C(=O)O)c1cc(-c2ccccc2F)on1 , assay SAUR 9218, MIC value: 0.5

// compound COc1cnc(C(=O)Nc2ccc(Br)cc2C(=O)O)cn1 , assay SAUR 9218, MIC value: 4

* * *

- Test system: SAUR 9218
- EXPERIMENTAL DETAILS: MIC Test Method, standard agar dilution
- Assay type: cell-based
- STUDY CONDITIONS: agar dilution, Mueller Hinton agar, incubated overnight at 35° C.; lowest concentration that inhibits visible growth; read-out: SAUR 9218 MIC
Listing of recorded log10(MIC) by entry.
Hello, just confirming the data are log10 of MIC with units of µg/mL.

>>> value_reported("COc1ccc2cc(C(=O)Nc3ccc(C#N)cc3C(=O)O)n(C)c2c1")
-0.30
>>> value_reported("Cc1c(S(=O)(=O)Nc2ccc(F)c(Cl)c2)csc1C(=O)Nc1ccc(Br)cc1C(=O)O")
1.81
>>> value_reported("CCC(C)Oc1ccc2cc(C(=O)Nc3ccc(C#N)cc3C(=O)O)n(C)c2c1 (stereo not shown)")
1.20
>>> value_reported("CCC(=O)Nc1cccc2cc(C(=O)Nc3ccc(C#N)cc3C(=O)O)[nH]c12")
0.30
>>> value_reported("O=C(Nc1ccc(Br)cc1C(=O)O)c1cnc(Cl)c(Cl)c1")
0.60

# log10(MIC) of N#Cc1ccc(NC(=O)c2cc(-c3ccccc3O)on2)c(C(=O)O)c1 = -0.90

# log10(MIC) of N#Cc1ccc(NC(=O)c2cc3cccc(NC(=O)Cc4ccc(Cl)cc4)c3[nH]2)c(C(=O)O)c1 = -0.60

# log10(MIC) of O=C(Nc1ccc(Br)cc1C(=O)O)c1cc(-c2ccccc2Cl)on1 = -0.90

# log10(MIC) of O=C(Nc1ccc(Br)cc1C(=O)O)c1ccc(-c2ccc(Cl)cc2)o1 = 1.51

# log10(MIC) of CC(C)Oc1cccc2cc(C(=O)Nc3ccc(C#N)cc3C(=O)O)n(C)c12 = -0.90

# log10(MIC) of CCCCC(C)Sc1ccc(C(=O)Nc2ccc(C#N)cc2C(=O)O)cn1 (stereo not shown) = -0.90

# log10(MIC) of CCC(CC)C(=O)Nc1cccc2cc(C(=O)Nc3ccc(C#N)cc3C(=O)O)[nH]c12 = 0.00

# log10(MIC) of O=C(Nc1ccc(Br)cc1C(=O)O)c1cnc(CC[C@H](O)CO)cn1 = 1.81

# log10(MIC) of Cc1noc(C)c1-c1cncc(C(=O)Nc2ccc(C#N)cc2C(=O)O)c1 = 1.20

# log10(MIC) of Cn1c(C(=O)Nc2ccc(C#N)cc2C(=O)O)cc2cccc(-c3ccccc3)c21 = -0.60

# log10(MIC) of N#Cc1ccc(NC(=O)c2noc3ccc(S(=O)(=O)Nc4ccccc4)cc23)c(C(=O)O)c1 = -1.82

# log10(MIC) of O=C(Nc1ccc(Br)cc1C(=O)O)c1csc(S(=O)(=O)N2CCN(c3ccc(Cl)cc3)CC2)c1 = 1.51

# log10(MIC) of Cc1sc(C(=O)Nc2ccc(C#N)cc2C(=O)O)cc1S(=O)(=O)N(C)CCc1ccccc1 = 0.60

* * *

Listing of recorded MIC by entry.
- Test system: SAUR 9218
- EXPERIMENTAL DETAILS: MIC Test Method, standard agar dilution
- Format: cell-based
- STUDY CONDITIONS: agar dilution, Mueller Hinton agar, incubated overnight at 35° C.; lowest concentration that inhibits visible growth; read-out: SAUR 9218 MIC
Write the value in µg/mL as a bare number.

>>> value_reported("CCCCCCCCSc1cnc(C(=O)Nc2ccc(C#N)cc2C(=O)O)cn1")
0.5
>>> value_reported("Cc1ccc(C(=O)Nc2ccc(Br)cc2C(=O)O)s1")
64
>>> value_reported("Cn1c(C(=O)Nc2ccc(C#N)cc2C(=O)O)cc2cccc(OCC(O)COCCOc3ccccc3)c21 (stereo not shown)")
0.5
>>> value_reported("Cc1ccccc1-c1cccc2cc(C(=O)Nc3ccc(C#N)cc3C(=O)O)n(C)c12")
0.125
>>> value_reported("N#Cc1ccc(NC(=O)c2noc3cc(Cl)ccc23)c(C(=O)O)c1")
1
>>> value_reported("N#Cc1ccc(NC(=O)c2nc3ccccc3[nH]2)c(C(=O)O)c1")
4
>>> value_reported("Cn1c(C(=O)Nc2ccc(C#N)cc2C(=O)O)cc2cccc(OCc3ccccc3)c21")
0.125
>>> value_reported("N#Cc1ccc(NC(=O)c2cc3cccc(NC(=O)Cc4ccc(C(F)(F)F)cc4)c3[nH]2)c(C(=O)O)c1")
0.5

Could you now look at the following molecule, please?
// molecule N#Cc1ccc(NC(=O)c2ccc(S(=O)(=O)Cc3ccccc3)nc2)c(C(=O)O)c1 , assay SAUR 9218, MIC value: 64

* * *

- Tested on: SAUR 9218
- EXPERIMENTAL DETAILS: MIC Test Method, standard agar dilution
- Format: cell-based
- STUDY CONDITIONS: agar dilution, Mueller Hinton agar, incubated overnight at 35° C.; lowest concentration that inhibits visible growth; read-out: SAUR 9218 MIC
METRIC NAME: MIC (µg/mL)
Write the value in µg/mL as a bare number.

Worked examples follow.
>>> value_reported("Cn1c(C(=O)Nc2ccc(C#N)cc2C(=O)O)cc2ccc(N(S(=O)(=O)c3ccccc3)S(=O)(=O)c3ccccc3)cc21")
0.5
>>> value_reported("N#Cc1ccc(NC(=O)c2cc(-c3ccccc3Cl)on2)c(C(=O)O)c1")
0.125

# MIC of CSc1ccc(C(=O)Nc2ccc(C#N)cc2C(=O)O)cn1.Cl = 4

# MIC of N#Cc1ccc(NC(=O)c2ccc(S(=O)(=O)N3CCc4cc(Cl)ccc43)nc2)c(C(=O)O)c1 = 2

# MIC of CCCCS(=O)(=O)N(c1ccc2cc(C(=O)Nc3ccc(C#N)cc3C(=O)O)n(C)c2c1)S(=O)(=O)CCCC = 2

# MIC of CC(C)Cn1c(C(=O)Nc2ccc(C#N)cc2C(=O)O)cc2ccccc21 = 4

# MIC of CC(C)(C)CC(=O)Nc1cccc2cc(C(=O)Nc3ccc(C#N)cc3C(=O)O)[nH]c12 = 2

# MIC of Cc1noc(C)c1-c1cc(C(=O)Nc2ccc(C#N)cc2C(=O)O)no1 = 1

# MIC of N#Cc1ccc(NC(=O)c2cc3cccc4c3n2CCC4O)c(C(=O)O)c1 (stereo not drawn) = 0.5

# MIC of CCCCCCSc1cnc(C(=O)Nc2ccc(C#N)cc2C(=O)O)nc1 = 2

# MIC of CCCS(=O)(=O)Nc1cccc2cc(C(=O)Nc3ccc(C#N)cc3C(=O)O)n(C)c12 = 0.5

# MIC of CN(C)S(=O)(=O)c1ccc2onc(C(=O)Nc3ccc(Br)cc3C(=O)O)c2c1 = 0.25

Reference source: patent US20040110802A1
